Values were extracted from ChEMBL document CHEMBL3997828.

Experiment: Solubility of the compound in pH 1.8 SGF at 0.1 mg/ml after 15 mins by reverse-phase chromatography
Type: physicochemical
Conditions: simulated gastric fluid (SGF)
Entries and their solubility at 0.25 h values follow.
Give your result in µg/mL as a bare value.

C[C@@H]1CC[C@@H](Oc2cc(C#N)ccn2)CN1C(=O)c1ccccc1-c1ncccn1 : 680

Below: the item to evaluate.
Prompt: Identify the reported solubility at 0.25 h for the following entry. C[C@@H]1CC[C@@H](Oc2cc(C#N)ccn2)CN1C(=O)c1ccccc1-n1nccn1
Response: 13.7

----------
Entries and their pIC50 values follow.
Target: Orexin receptor type 2 (Homo sapiens)
Sequence (O43614 whole entry): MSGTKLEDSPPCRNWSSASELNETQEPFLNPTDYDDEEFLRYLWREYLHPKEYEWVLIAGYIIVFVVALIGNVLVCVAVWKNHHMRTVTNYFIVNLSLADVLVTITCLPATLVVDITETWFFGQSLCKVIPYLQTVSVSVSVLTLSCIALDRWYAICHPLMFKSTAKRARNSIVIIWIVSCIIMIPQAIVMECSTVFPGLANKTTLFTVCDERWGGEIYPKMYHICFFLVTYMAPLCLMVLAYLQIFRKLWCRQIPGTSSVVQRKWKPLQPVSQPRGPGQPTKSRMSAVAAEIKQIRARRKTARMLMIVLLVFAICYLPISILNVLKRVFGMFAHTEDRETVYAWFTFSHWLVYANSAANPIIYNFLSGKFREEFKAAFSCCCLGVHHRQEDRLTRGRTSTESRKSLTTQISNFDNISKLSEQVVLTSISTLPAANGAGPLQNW
Test: Antagonist activity at human OX2R expressed in CHOK1 cells assessed as reduction in orexin A-induced calcium flux preincubated followed by orexin A addition by FLIPR assays
pIC50 field: float, defined as -log10 of concentration (mol/L).

Answered examples (3):
C[C@@H]1CC[C@@H](Sc2cc(C#N)ccn2)CN1C(=O)c1ccccc1-n1nccn1 : 7.89
CC(=O)Nc1cc(C(=O)N2C[C@H](Oc3nccc(C#N)c3C)CC[C@H]2C)c(-c2ccccc2)cn1 : 7.42
CC(=O)Nc1ccc(-c2ccccc2)c(C(=O)N2C[C@H](Oc3nccc(C#N)c3C)CC[C@H]2C)n1 : 7.42

Prompt: Identify the reported pIC50 for the following entry. COC(=O)c1cccnc1O[C@@H]1CC[C@@H](C)N(C(=O)c2ccccc2-n2nccn2)C1
Response: 7.46

----------
Entries and their IC50 values follow.
Target: Orexin/Hypocretin receptor type 1 (Homo sapiens)
Sequence (O43613 whole entry): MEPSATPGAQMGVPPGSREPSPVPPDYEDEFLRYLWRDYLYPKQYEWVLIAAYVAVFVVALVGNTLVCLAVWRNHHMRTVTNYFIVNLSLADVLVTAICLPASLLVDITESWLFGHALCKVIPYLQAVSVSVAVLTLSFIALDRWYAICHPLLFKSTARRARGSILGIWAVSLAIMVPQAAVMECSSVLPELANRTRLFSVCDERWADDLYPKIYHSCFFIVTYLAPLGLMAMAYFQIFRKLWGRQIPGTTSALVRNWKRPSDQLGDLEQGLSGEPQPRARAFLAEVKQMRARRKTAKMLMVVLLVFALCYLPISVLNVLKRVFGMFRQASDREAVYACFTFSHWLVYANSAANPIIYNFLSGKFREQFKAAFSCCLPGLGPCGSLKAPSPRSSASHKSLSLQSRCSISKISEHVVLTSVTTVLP
Test: Antagonist activity at human OX1R expressed in CHOK1 cells assessed as reduction in orexin A-induced calcium flux preincubated followed by orexin A addition by FLIPR assays
Give your result in nM as a bare value.

Answered examples (2):
Cc1c(C#N)ccnc1O[C@@H]1CC[C@@H](C)N(C(=O)c2ccccc2-n2nccn2)C1 : 996
Cc1c(C#N)ccnc1O[C@@H]1CC[C@@H](C)N(C(=O)c2cccnc2-c2ccccc2)C1 : 4670

Prompt: State recorded IC50 with Orexin/Hypocretin receptor type 1 (Homo sapiens), entry CCOc1ccccc1C(=O)N1C[C@H](Oc2nccc(C#N)c2C)CC[C@H]1C , no comment.
Response: 2100

Prompt: State recorded IC50 with Orexin/Hypocretin receptor type 1 (Homo sapiens), entry Cc1c(C#N)ccnc1O[C@@H]1CC[C@@H](C)N(C(=O)c2ccccc2C2CC2)C1 , no comment.
Response: 1740
